biological target: Tyrosine-protein kinase Yes (Homo sapiens); settings: at 1 µM;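 further: values are mean percent inhibition of YES kinase activity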
For each entry below, report its inhibition value.
One number for each entry, in %.

smi: CN(C)c1cc2c(Nc3ccc4nc(Cc5ccccc5)[nH]c4c3)ncnc2cn1
reading unit: %
inhibition: 37

smi: O=C1NC(=O)C(N2CCc3ccccc32)=C1c1ccc(Cl)cc1
reading unit: %
inhibition: 1.35

smi: Cc1nnc(-c2ccc(C)c(-c3ccc(C(=O)Nc4cccc(C#N)c4)cc3)c2)o1
reading unit: %
inhibition: 5.81

smi: Cc1cccc(-c2n[nH]cc2-c2ccc3ncccc3n2)n1
reading unit: %
inhibition: 9.98

smi: N#Cc1c(NC(=O)c2cccc3ccccc23)sc2c1CCCC2
reading unit: %
inhibition: 2.43

Task: Which inhibition value belongs to "CC(=O)Nc1cccc(C#Cc2cncnc2Nc2ccc(OCc3cccc(F)c3)c(Cl)c2)n1" ?
Result: 10.7

* * *

molecular target: Sphingosine kinase 2 (Homo sapiens) (UniProt Q9NRA0); settings: at 1 µM
Sequence (Q9NRA0 whole entry): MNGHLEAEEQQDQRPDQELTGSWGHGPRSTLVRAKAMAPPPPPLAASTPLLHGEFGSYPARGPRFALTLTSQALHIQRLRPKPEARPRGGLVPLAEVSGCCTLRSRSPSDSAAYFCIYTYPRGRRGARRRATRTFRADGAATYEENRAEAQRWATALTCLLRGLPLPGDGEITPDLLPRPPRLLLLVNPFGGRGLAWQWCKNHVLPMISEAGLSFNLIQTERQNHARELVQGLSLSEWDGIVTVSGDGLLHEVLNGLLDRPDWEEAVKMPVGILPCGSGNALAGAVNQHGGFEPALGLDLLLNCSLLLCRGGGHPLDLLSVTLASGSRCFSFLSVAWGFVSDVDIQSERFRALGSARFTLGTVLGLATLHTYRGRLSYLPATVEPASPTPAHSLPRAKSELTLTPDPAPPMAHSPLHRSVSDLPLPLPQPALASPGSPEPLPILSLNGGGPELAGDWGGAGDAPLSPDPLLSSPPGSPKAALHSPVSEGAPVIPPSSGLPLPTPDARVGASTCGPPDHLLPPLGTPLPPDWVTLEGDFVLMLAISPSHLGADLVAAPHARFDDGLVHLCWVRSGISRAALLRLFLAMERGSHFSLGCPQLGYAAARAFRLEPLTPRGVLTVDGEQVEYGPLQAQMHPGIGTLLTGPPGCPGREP
Description: GSK_PKIS: SPHK2 mean inhibition at 1 uM [Nanosyn]
value kind: inhibition
Kindly format the answer as number then unit.

smi: CS(=O)(=O)CCNCc1nc(-c2ccc3ncnc(Nc4ccc(F)c(Cl)c4)c3c2)cs1
inhibition: -0.93%
--
smi: COc1ccc(-c2coc3ncnc(N)c23)cc1
inhibition: -0.88%

Now consider the entry below.
Task: Which inhibition value belongs to "N#Cc1c(NC(=O)c2cccc3ccccc23)sc2c1CCCC2" ?
Result: 0.03%

* * *

molecular target: Serine/threonine-protein kinase pim-2 (Homo sapiens); settings: at 1 µM;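 further: each value is a mean of the inhibition measurements against the kinase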
For each entry below, report its inhibition value.
Numbers only, in %.

Recorded results for 3 compounds are shown here.
compound: CC1=C(C(=O)Nc2ccc3[nH]ncc3c2)C(c2ccc(F)cc2)NC(=O)N1 (centres undefined)
reading unit: %
inhibition: -0.13
//
compound: Fc1cccc(COc2ccc(Nc3ncnc4cc(-c5ccc[nH]5)sc34)cc2Cl)c1
reading unit: %
inhibition: -2.72
//
compound: N#Cc1c(NC(=O)c2cccc3ccccc23)sc2c1CCCC2
reading unit: %
inhibition: -0.27

Now consider the entry below.
Task: Which inhibition value belongs to "O=C(Nc1n[nH]c2nc(-c3ccco3)c(Br)cc12)C1CC1" ?
Result: 0.42

* * *

molecular target: SRSF protein kinase 1 (Homo sapiens) (UniProt Q96SB4); conditions: at 1 µM;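 further: reported values are mean percent inhibition of SRPK1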
Sequence (Q96SB4 whole entry): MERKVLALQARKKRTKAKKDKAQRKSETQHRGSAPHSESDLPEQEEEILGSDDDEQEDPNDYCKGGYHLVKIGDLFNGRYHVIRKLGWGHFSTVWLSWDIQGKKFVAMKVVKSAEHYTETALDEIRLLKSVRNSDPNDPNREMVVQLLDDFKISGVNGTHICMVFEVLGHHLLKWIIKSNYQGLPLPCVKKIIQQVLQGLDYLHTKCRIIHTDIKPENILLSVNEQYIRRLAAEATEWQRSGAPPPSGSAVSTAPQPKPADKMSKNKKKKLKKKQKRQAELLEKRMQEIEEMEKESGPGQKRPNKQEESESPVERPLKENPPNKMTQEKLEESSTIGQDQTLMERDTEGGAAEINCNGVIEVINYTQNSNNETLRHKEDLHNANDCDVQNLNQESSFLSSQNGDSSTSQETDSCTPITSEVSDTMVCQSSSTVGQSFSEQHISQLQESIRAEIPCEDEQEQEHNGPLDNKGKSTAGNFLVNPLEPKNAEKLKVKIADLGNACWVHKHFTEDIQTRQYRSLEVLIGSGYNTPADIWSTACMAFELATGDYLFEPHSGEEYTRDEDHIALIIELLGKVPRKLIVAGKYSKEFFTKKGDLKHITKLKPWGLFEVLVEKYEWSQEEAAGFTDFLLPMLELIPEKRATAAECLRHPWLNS
value kind: inhibition (%)
Answers are plain numbers, in %.

molecule: c1cnn2ncc(-c3ccnc(Nc4ccc5c(c4)OCCO5)n3)c2c1
reading unit: %
value reported: 2.88

molecule: CN(C)c1cc2c(Nc3ccc4nc(Cc5ccccc5)[nH]c4c3)ncnc2cn1
reading unit: %
value reported: -1.6

molecule: Cc1ccc(C(=O)NC2CCCCC2)cc1-c1ccc(C(=O)NCC2CC2)cc1
reading unit: %
value reported: -2.48

molecule: Cc1nn(C)c2cc(N(C)c3ccnc(Nc4cccc(S(N)(=O)=O)c4)n3)ccc12
reading unit: %
value reported: -1.14

Would you mind listing inhibition for each of the following molecules?
1. CCn1c(-c2nonc2N)nc2cncc(C(=O)N3CCNCC3)c21
2. CS(=O)(=O)CCNCc1nc(-c2ccc3ncnc(Nc4ccc(F)c(Cl)c4)c3c2)cs1
3. O=C1NC(=O)C(c2cccc(Cl)c2)=C1Nc1ccc(O)c(Cl)c1
4. CCn1c(-c2nonc2N)nc2cncc(C(=O)N3CC[C@H](N)C3)c21
5. CS(=O)(=O)CCNCc1ccc(-c2ccc3ncnc(Nc4ccc(OCc5cccc(F)c5)c(C(F)(F)F)c4)c3c2)o1
6. NC(=O)c1cccc(Nc2nccc(Nc3cccc4[nH]ncc34)n2)c1

Result:
1. -1.85
2. 1.62
3. -4.83
4. -0.35
5. -0.25
6. 2.55

Would you mind listing inhibition for each of the following molecules?
1. CC1=C(C(=O)Nc2ccc3[nH]ncc3c2)C(c2ccc3ccccc3c2)CC(=O)N1 (stereo not drawn)
2. COc1ccc(COc2ccc(Cc3cnc(N)nc3N)cc2OC)cc1
3. COc1ccccc1Nc1ncc(-c2ccccc2)o1

Result:
0.02
-2.52
-2.61

* * *

For each entry below, report its inhibition value.
tested on: Tyrosine-protein kinase ABL1 (Homo sapiens), P00519 [E255K]; details: at 1 µM
Sequence (P00519 whole entry E255K): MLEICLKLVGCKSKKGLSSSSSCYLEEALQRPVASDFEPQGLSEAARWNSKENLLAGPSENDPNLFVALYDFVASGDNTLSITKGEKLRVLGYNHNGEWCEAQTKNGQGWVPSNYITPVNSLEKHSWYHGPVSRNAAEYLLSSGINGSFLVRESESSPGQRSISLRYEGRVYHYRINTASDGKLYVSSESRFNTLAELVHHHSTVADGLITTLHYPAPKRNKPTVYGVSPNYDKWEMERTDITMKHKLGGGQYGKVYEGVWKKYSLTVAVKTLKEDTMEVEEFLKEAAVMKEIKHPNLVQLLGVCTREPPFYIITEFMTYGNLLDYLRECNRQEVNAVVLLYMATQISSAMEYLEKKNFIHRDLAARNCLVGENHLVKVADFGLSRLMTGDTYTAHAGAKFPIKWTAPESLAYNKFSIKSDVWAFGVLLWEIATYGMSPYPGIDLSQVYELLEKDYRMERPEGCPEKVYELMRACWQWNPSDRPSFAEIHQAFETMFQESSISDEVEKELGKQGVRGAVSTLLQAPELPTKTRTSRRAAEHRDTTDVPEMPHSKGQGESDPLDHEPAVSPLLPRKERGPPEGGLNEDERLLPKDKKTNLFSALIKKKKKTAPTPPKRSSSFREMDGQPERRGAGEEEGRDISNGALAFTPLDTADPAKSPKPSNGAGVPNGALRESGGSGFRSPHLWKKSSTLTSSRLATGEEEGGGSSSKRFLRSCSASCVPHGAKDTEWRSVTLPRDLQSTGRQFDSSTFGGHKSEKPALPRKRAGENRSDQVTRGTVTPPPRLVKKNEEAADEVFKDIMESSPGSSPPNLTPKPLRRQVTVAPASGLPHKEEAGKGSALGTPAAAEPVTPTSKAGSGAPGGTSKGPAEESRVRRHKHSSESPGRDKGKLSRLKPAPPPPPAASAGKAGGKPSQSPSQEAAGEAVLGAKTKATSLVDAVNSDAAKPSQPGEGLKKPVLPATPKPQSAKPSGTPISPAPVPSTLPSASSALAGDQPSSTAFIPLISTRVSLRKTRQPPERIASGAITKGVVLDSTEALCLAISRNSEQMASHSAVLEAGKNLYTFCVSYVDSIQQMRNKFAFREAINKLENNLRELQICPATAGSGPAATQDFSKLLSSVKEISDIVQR
Numbers only, in %.

smi: CCn1c(-c2nonc2N)nc2cncc(C(=O)N3CC[C@H](N)C3)c21
inhibition (%): 2.43

Would you mind listing inhibition for each of the following molecules?
1. Fc1cccc(COc2ccc(Nc3ncnc4cc(-c5ccc[nH]5)sc34)cc2Cl)c1
2. NC(=O)c1ccc(-c2nc(-c3ccccn3)c(-c3ccc4c(c3)OCO4)[nH]2)cc1

Result:
1. 7.42
2. 4.45

Would you mind listing inhibition for each of the following molecules?
1. COc1cc2ncn(-c3cc(OCc4ccccc4C(F)(F)F)c(C(N)=O)s3)c2cc1OC
2. CS(=O)(=O)CCNCc1ccc(-c2ccc3ncnc(Nc4ccc(OCc5ccccc5)c(Cl)c4)c3c2)o1

Result:
1: 13.5; 2: 0.95

* * *

target: Serine/threonine-protein kinase 10 (Homo sapiens); settings: at 0.1 µM;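 further: mean percent inhibition of LOK (STK10)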
value kind: inhibition (%)
One number for each entry, in %.

Would you mind listing inhibition for each of the following compounds?
1. CC1=C(C(=O)Nc2ccc3[nH]ncc3c2)C(c2ccc3ccccc3c2)CC(=O)N1 (stereo not drawn)
2. CS(=O)(=O)CCN(CC#N)Cc1ccc(-c2ccc3ncnc(Nc4ccc(OCc5cccc(F)c5)c(Cl)c4)c3c2)o1
3. CN1CCC(C(=O)Nc2n[nH]c3nnc(-c4ccccc4)cc23)CC1
4. NS(=O)(=O)c1cccc(-c2ccc3c(NC(=O)C4CC4)n[nH]c3c2)c1
5. NS(=O)(=O)c1ccc(N/N=C2\C(=O)Nc3ccc(C(=O)NCCc4c[nH]cn4)cc32)cc1
6. Nc1ncnc2occ(-c3ccc(NC(=O)Nc4cccc(C(F)(F)F)c4)cc3)c12

Result:
[2.65, 3.25, 8.49, 1.33, 3.71, 26.4]

* * *

For each entry below, report its inhibition value.
system: Epidermal growth factor receptor (Homo sapiens), P00533 [L858R]; conditions: at 0.1 µM
Sequence (P00533 whole entry L858R): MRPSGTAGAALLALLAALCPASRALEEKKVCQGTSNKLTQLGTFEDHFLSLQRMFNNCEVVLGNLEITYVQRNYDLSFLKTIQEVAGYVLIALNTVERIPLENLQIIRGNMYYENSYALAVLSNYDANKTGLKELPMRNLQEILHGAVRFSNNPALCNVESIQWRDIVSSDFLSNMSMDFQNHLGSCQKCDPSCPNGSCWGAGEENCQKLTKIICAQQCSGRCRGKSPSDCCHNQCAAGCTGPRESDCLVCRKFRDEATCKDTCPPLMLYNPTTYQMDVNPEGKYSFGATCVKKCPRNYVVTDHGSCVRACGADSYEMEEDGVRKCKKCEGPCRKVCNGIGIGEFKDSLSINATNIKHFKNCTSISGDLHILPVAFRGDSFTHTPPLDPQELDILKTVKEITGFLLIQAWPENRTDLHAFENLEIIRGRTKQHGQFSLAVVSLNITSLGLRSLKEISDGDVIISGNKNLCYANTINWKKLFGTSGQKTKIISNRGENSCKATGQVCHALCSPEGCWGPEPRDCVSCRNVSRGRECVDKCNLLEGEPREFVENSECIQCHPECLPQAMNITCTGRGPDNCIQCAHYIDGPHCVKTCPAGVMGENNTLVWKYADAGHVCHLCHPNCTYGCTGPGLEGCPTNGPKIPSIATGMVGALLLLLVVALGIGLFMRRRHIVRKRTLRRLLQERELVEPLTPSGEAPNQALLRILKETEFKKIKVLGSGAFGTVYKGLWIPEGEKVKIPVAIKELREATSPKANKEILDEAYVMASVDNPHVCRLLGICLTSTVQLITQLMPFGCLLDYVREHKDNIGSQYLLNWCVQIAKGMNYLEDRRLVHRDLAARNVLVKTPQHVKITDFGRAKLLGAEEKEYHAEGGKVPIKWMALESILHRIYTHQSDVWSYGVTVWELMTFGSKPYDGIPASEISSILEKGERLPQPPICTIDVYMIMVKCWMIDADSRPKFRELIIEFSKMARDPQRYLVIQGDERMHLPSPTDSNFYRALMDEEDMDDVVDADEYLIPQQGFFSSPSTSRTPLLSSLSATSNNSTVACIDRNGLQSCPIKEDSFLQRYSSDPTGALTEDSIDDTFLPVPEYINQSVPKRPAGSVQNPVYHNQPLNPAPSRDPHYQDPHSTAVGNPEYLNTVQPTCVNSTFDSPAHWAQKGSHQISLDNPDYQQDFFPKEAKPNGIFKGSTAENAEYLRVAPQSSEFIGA
Give bare numbers, in %.

Recorded results for 5 compounds are shown here.
compound: COc1cc2ncn(-c3cc(O[C@H](C)c4ccccc4Cl)c(C(N)=O)s3)c2cc1OC
inhibition, %: 3.8
//
compound: CN(C)c1cc2c(Nc3ccc4nc(Cc5ccccc5)[nH]c4c3)ncnc2cn1
inhibition, %: 16.1
//
compound: COc1ccccc1Nc1ncc(-c2ccccc2)o1
inhibition, %: 0.79
//
compound: CC(=O)Nc1cccc(C#Cc2cncnc2Nc2ccc(OCc3cccc(F)c3)c(Cl)c2)n1
inhibition, %: 24.8
//
compound: c1cnn2ncc(-c3ccnc(Nc4ccc5c(c4)OCCO5)n3)c2c1
inhibition, %: 3.09

Would you mind listing inhibition for each of the following compounds?
1. COc1cc2ncn(-c3cc(O[C@@H](C)c4ccccc4Cl)c(C(N)=O)s3)c2cc1OC
2. CCc1cccc(NC(=O)Nc2ccc(Oc3ccc4nc(NC(=O)OC)[nH]c4c3)cc2)c1
3. CS(=O)(=O)CCN(CC#N)Cc1ccc(-c2ccc3ncnc(Nc4ccc(OCc5cccc(F)c5)c(Cl)c4)c3c2)o1
4. O=C1NC(=O)C(c2ccc(Cl)cc2)=C1Nc1ccc(Cl)c(C(=O)O)c1
5. CCn1c(-c2nonc2N)nc2ccncc21
6. Cc1nn(C)c2cc(N(C)c3ccnc(Nc4cccc(S(N)(=O)=O)c4)n3)ccc12
7. NCc1ccc(-c2nc(-c3ccc(Cl)c(O)c3)c(-c3ccncc3)[nH]2)cc1

Result:
1. 5.96
2. 2.52
3. 36.5
4. -2.2
5. -3.87
6. 1.02
7. 1.78

* * *

molecular target: Leukocyte tyrosine kinase receptor (Homo sapiens) (UniProt P29376); details: at 1 µM;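 further: each value is the mean inhibition of LTK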
Sequence (P29376 whole entry): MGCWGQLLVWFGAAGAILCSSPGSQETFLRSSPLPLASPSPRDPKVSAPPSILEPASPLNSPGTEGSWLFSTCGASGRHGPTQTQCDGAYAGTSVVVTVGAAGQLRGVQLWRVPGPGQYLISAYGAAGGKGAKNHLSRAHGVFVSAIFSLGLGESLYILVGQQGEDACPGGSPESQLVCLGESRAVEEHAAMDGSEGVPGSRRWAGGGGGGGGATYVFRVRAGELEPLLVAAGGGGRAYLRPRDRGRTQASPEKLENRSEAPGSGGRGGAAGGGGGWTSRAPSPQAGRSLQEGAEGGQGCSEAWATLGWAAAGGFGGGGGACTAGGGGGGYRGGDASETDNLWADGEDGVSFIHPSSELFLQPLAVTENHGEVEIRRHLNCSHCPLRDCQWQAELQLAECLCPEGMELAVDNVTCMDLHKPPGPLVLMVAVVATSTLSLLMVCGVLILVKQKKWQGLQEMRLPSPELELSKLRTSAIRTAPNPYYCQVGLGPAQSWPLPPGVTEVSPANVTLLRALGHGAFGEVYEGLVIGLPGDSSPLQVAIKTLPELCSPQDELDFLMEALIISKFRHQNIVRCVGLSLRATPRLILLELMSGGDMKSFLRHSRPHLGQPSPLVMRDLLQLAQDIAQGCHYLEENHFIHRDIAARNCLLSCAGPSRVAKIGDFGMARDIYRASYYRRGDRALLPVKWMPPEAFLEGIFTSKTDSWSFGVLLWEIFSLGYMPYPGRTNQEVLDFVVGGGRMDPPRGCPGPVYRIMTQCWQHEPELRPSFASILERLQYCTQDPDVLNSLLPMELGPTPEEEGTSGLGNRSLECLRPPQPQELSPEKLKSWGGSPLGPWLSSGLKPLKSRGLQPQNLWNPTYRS
# label = 1 if inhibition >= 2% else 0

These recorded examples may help you get a feel for the data.
compound: COc1cccc(-n2ncc3c(N/N=C/c4cccc(F)c4)ncnc32)c1
discrete label: 0
//
compound: CCN1CCC(CC(=O)Nc2n[nH]c3nc(-c4cccs4)c(Br)cc23)CC1
discrete label: 0
//
compound: Cc1cccc(-c2n[nH]cc2-c2ccc3ncccc3n2)n1
discrete label: 0
//
compound: O=C(Nc1n[nH]c2nc(-c3ccco3)c(Br)cc12)C1CC1
discrete label: 0
//
compound: CS(=O)(=O)CCNCc1ccc(-c2ccc3ncnc(Nc4ccc(OCc5cccc(F)c5)c(C(F)(F)F)c4)c3c2)o1
discrete label: 1
//
compound: COc1ccc(-c2ccncc2)cc1C(N)=O
discrete label: 1
//
compound: Fc1cccc(COc2ccc(Nc3ncnc4sc(-c5cccs5)cc34)cc2Cl)c1
discrete label: 0
//
compound: COc1cc2ncn(-c3cc(O[C@H](C)c4ccccc4Cl)c(C(N)=O)s3)c2cc1OC
discrete label: 1

Task: Please indicate if the recorded inhibition for "CCn1c(-c2nonc2N)nc2cnc(Oc3cccc(NC(=O)c4ccc(OCCN5CCOCC5)cc4)c3)cc21" meets or exceeds 2%.
Result: 0

Task: Okay, and "O=C1NC(=O)C(c2cccc(Cl)c2)=C1Nc1ccc(O)c(Cl)c1" ?
Result: 0

Task: Okay, and "COc1cc2c(cc1Nc1nc(N3CCc4ccccc43)c3cc[nH]c3n1)N(C(=O)CN(C)C)CC2" ?
Result: 1

Task: Okay, and "CNC(=O)c1cncc(/C=C/c2c(Cl)cccc2Cl)c1" ?
Result: 1

Task: Okay, and CC1=C(C(=O)Nc2ccc3[nH]ncc3c2)C(c2ccc(Cl)c(Cl)c2)CC(=O)N1 (configuration not stated) ?
Result: 0

Task: Okay, and "Cc1cc(O)cc(C)c1/C=C/c1cncc(-c2nn[nH]n2)c1" ?
Result: 1

Task: Okay, and "CC(=O)Nc1cccc(C#Cc2cncnc2Nc2ccc(OCc3cccc(F)c3)c(Cl)c2)n1" ?
Result: 0

Task: Okay, and "Cc1ccc(NC(=O)c2ccnc(N3CCCC3)c2)cc1-c1ccc(C(=O)NCC2CC2)cc1" ?
Result: 1

Task: Okay, and "Nc1nc(-c2ccccn2)c(-c2ccc3ncccc3n2)s1" ?
Result: 1
